DC50 overview
target: EGFR (Homo sapiens, UniProt P00533, DEL746-750); construct: endogenous in cells; host or cells: HCC827; test: Cell Degradation 2: EGFR degradation in HCC827 cells, HTRF assay; type: cell-based; conditions: 16 h treatment, EGFR degradation by HTRF
Sequence (P00533 with tags, fused parts or gaps DEL746-750): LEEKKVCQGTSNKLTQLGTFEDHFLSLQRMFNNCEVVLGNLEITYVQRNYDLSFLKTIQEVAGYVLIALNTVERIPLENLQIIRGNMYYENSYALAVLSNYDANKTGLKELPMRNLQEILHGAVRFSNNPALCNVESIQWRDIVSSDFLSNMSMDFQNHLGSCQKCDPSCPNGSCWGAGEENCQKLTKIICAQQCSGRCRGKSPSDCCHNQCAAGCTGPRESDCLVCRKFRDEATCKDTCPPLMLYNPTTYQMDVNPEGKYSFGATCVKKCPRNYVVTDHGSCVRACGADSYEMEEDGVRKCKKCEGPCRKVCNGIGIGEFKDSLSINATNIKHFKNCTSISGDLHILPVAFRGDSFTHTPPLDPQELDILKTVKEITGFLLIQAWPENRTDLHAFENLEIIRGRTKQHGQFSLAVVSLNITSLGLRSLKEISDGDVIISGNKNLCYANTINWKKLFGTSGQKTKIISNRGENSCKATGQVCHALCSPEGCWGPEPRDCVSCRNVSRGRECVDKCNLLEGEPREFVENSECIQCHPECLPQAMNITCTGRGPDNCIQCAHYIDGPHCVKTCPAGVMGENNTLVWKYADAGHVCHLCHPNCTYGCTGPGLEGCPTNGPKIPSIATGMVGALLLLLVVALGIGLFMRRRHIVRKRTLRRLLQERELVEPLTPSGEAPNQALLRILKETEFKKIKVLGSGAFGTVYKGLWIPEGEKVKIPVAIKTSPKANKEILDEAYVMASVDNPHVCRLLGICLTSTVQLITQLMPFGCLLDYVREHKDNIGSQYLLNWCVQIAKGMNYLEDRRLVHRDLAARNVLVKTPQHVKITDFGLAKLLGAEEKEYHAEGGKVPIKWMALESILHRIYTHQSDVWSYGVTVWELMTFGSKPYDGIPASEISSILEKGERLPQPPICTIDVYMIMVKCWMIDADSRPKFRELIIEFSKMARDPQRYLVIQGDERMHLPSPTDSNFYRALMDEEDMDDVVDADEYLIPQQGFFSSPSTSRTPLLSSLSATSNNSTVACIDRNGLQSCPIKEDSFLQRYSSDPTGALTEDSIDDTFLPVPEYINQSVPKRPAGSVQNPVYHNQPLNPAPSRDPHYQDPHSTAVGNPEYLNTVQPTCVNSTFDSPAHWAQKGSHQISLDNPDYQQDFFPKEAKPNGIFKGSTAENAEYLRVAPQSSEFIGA
Sequence (Q96SW2 whole entry partner): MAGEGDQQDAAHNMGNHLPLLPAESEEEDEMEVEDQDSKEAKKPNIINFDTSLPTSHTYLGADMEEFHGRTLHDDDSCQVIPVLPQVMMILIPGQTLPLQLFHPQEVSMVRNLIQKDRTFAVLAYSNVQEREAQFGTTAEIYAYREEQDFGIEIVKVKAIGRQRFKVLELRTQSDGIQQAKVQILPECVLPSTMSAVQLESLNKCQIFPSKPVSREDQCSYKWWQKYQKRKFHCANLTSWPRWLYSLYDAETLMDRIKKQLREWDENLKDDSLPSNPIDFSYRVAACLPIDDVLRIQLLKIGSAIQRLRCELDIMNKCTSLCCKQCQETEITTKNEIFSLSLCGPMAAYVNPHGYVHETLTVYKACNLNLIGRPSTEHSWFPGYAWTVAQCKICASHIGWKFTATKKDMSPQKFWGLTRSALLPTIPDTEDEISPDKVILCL
Kindly answer with a numeric value in nM, unit omitted.

Example results:
# COMPOUND, ASSAY READOUT, NUMERIC READOUT
records = [
    ("CS(=O)(=O)N1CCc2cccc(Nc3nc(Nc4ccc(N5CCC(N6CCN(CCc7ccc(C8CCC(=O)NC8=O)c(F)c7)CC6)CC5)c(F)c4)nc4[nH]ccc34)c21 (centres unmarked)", "DC50", 19.8),
    ("CS(=O)(=O)N1CCc2cccc(Nc3nc(Nc4ccc(N5CCC(N6CCN(C(=O)CC7CN(c8ccc9c(c8)C(=O)N(C8CCC(=O)NC8=O)C9=O)C7)CC6)CC5)c(F)c4)nc4[nH]ccc34)c21 (centres unmarked)", "DC50", 19.4),
    ("CS(=O)(=O)N1CCc2cccc(Nc3nc(Nc4ccc(N5CCC(N6CCN(C(=O)CCN7CCC(c8ccc(C9CCC(=O)NC9=O)cc8)CC7)CC6)CC5)c(F)c4)nc4[nH]ccc34)c21 (centres unmarked)", "DC50", 123),
    ("CS(=O)(=O)N1CCc2cccc(Nc3nc(Nc4ccc(N5CCC(N6CCN(CCCC7CN(c8ccc9c(c8)C(=O)N(C8CCC(=O)NC8=O)C9=O)C7)CC6)CC5)c5c4OCC5)ncc3Cl)c21 (centres unmarked)", "DC50", 11.9),
]

Query (compound): CS(=O)(=O)N1CCc2cccc(Nc3nc(Nc4ccc(N5CCC(N6CCN(CCC7CCN(c8ccc(C9CCC(=O)NC9=O)c(F)c8)CC7)CC6)CC5)c(F)c4)ncc3Cl)c21 (centres unmarked) ; field requested: DC50
4.3

###

target: EGFR (Homo sapiens, UniProt P00533, L858R/T790M); construct: endogenous in cells; host or cells: H1975; experiment: Cell Degradation 1: EGFR degradation in H1975 cells, HTRF assay; type: cell-based; conditions: 16 h treatment, EGFR degradation by HTRF
Sequence (P00533 25-1210 T790M/L858R): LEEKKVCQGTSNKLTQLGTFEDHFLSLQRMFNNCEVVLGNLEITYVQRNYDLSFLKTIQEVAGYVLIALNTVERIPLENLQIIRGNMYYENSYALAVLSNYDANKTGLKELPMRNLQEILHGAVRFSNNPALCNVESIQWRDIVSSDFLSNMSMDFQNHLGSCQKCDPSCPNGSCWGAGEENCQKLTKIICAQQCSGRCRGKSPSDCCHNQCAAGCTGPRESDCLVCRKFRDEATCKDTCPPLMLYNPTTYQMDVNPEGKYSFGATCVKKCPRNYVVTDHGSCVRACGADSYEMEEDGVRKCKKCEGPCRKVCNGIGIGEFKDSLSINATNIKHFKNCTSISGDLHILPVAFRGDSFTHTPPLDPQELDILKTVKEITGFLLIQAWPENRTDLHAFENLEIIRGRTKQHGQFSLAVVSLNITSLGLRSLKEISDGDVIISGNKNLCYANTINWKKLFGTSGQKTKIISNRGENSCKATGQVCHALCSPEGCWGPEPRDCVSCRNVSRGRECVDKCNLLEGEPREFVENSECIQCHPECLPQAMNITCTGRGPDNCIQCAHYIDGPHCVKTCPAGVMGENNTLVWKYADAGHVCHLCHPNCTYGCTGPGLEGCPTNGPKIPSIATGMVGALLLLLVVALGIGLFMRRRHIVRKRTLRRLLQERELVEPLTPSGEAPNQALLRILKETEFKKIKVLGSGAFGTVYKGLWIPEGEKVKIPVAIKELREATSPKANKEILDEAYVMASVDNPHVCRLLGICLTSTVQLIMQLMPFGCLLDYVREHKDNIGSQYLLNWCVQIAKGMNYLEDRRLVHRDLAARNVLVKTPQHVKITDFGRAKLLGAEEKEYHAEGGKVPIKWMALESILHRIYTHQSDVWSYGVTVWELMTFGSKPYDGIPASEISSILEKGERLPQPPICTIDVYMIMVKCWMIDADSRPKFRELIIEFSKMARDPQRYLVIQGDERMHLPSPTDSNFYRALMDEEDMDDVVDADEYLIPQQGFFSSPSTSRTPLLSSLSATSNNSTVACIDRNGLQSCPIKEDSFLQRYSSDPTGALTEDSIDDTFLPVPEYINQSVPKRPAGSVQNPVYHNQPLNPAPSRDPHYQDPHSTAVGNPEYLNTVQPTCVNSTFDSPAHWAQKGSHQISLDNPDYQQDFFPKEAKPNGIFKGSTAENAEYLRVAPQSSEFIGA
ASSAY READOUT: DC50 (nM)
Kindly answer with a numeric value in nM, unit omitted.

Example results:
# MOLECULE, DC50, nM
rows = [
    ("CS(=O)(=O)N1CCc2cccc(Nc3nc(Nc4ccc(N5CCC(N6CCN(CCC7CCN(c8ccc9c(c8)C(=O)N(C8CCC(=O)NC8=O)C9=O)CC7)CC6)CC5)c5c4OCC5)ncc3Cl)c21 (stereo not drawn)", 7),
    ("CS(=O)(=O)N1CCc2cccc(Nc3nc(Nc4ccc(N5CCC(N6CCN(C(=O)CCN7CCC(c8ccc(C9CCC(=O)NC9=O)cc8)CC7)CC6)CC5)c(F)c4)nc4[nH]ccc34)c21 (stereo not drawn)", 23.7),
]

Query (molecule): CS(=O)(=O)N1CCc2cccc(Nc3nc(Nc4ccc(N5CCC(N6CCN(C(=O)CC7CCN(c8ccc(C9CCC(=O)NC9=O)cc8)CC7)CC6)CC5)c(F)c4)nc4[nH]ccc34)c21 (stereo not drawn) ; field requested: DC50
12.4

###

biological target: EGFR (Homo sapiens, UniProt P00533, DEL746-750); construct: endogenous in cells; host or cells: HCC827; assay: Cell Degradation 2: EGFR degradation in HCC827 cells, HTRF assay; assay type: cell-based; settings: 16 h treatment, EGFR degradation by HTRF
ASSAY READOUT: DC50 (nM)
Kindly answer with a numeric value in nM, unit omitted.

# MOLECULE, SYSTEM NAME, DC50 (nM)
data = [
    ("CS(=O)(=O)N1CCc2cccc(Nc3nc(Nc4ccc(N5CCC(N6CCN(CC7CCN(c8ccc9c(c8)C(=O)N(C8CCC(=O)NC8=O)C9=O)CC7)CC6)CC5)c(F)c4)nc4[nH]ccc34)c21 (stereo not shown) [Example 16]", "EGFR (Homo sapiens, UniProt P00533, DEL746-750)", 32.6),
]

Query (molecule): COc1cc(N2CCC(N3CCN(C[C@@H]4CCN(c5ccc6c(c5)CN(C5CCC(=O)NC5=O)C6=O)C4)CC3)CC2)c(C)cc1Nc1ncc(Br)c(Nc2cccc3c2N(S(C)(=O)=O)CC3)n1 (stereo partly shown) [Example 154] ; field requested: DC50
6

Query (molecule): COc1cc(Nc2nc(Nc3cccc4c3N(S(C)(=O)=O)CC4)c3cc[nH]c3n2)ccc1N1CCC(N2CCN(C(=O)C3CN(c4ccc5c(c4)C(=O)N(C4CCC(=O)NC4=O)C5=O)C3)CC2)CC1 (stereo not shown) [Example 73] ; field requested: DC50
1170

Query (molecule): COc1cc(N2CCC(N3CCN(CCC4CCN(c5ccc(C6CCC(=O)NC6=O)c(F)c5)CC4)CC3)CC2)ccc1Nc1ncc(Cl)c(Nc2cccc3c2N(S(C)(=O)=O)CC3)n1 (stereo not shown) [Example 36] ; field requested: DC50
8.6

Query (molecule): COc1cc(N2CCC(N3CCN(C(=O)C4CN(c5ccc6c(c5)CN(C5CCC(=O)NC5=O)C6=O)C4)CC3)CC2)c(C)cc1Nc1ncc(Br)c(Nc2cccc3c2N(S(C)(=O)=O)CC3)n1 (stereo not shown) [Example 172] ; field requested: DC50
2

###

biological target: EGFR LTC (Homo sapiens, UniProt P00533, C797S/L858R/T790M); construct: expressed in transfected cells; host or cells: BaF3; experiment: Cell Degradation 3: EGFR degradation in BaF3 cells (LTC), HTRF assay; assay type: cell-based; conditions: 16 h treatment, EGFR degradation by HTRF
Sequence (P00533 25-1210 T790M/C797S/L858R): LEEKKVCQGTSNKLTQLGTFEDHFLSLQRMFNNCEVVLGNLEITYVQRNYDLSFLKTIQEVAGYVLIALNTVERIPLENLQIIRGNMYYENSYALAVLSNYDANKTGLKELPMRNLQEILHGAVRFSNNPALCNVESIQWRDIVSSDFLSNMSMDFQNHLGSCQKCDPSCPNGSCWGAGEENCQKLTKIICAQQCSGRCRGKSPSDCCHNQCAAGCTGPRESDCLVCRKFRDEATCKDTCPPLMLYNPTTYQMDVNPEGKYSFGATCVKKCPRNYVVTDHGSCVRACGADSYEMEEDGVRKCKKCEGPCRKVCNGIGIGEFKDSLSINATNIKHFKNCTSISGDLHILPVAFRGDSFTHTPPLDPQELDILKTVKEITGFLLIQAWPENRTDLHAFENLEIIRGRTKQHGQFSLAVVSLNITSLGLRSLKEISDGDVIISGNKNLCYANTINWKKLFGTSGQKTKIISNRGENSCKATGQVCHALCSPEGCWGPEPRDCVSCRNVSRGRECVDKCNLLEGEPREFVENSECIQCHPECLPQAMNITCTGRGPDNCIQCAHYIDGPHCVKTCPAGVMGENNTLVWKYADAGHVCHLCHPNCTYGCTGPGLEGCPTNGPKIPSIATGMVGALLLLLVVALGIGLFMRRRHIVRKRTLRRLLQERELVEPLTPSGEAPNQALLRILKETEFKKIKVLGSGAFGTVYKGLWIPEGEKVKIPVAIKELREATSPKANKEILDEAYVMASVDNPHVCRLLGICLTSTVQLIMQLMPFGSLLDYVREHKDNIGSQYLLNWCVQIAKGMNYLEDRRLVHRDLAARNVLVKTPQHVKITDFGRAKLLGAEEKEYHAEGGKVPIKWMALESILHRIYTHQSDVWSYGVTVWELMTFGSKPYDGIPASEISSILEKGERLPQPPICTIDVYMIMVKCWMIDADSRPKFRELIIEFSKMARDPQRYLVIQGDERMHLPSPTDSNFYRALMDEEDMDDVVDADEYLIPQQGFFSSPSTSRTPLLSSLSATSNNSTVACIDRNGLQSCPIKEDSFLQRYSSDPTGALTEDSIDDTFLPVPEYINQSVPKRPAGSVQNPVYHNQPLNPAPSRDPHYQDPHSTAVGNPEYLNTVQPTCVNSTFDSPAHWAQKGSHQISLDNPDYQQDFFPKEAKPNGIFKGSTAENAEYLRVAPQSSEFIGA
ASSAY READOUT: DC50 (nM)
Kindly answer with a numeric value in nM, unit omitted.

# COMPOUND, SYSTEM NAME, DC50 [nM]
records = [
    ("COc1cc(N2CCC(N3CCN(CC4CCN(c5cc(F)c(C6CCC(=O)NC6=O)c(F)c5)CC4)CC3)CC2)c(C)cc1Nc1ncc(Br)c(Nc2cccc3c2N(S(C)(=O)=O)CC3)n1 (centres unmarked) [Example 181]", "EGFR LTC (Homo sapiens, UniProt P00533, C797S/L858R/T790M)", 64),
]

Query (compound): COc1cc(N2CCC(N3CCN(CCOc4cccc5c4C(=O)N(C4CCC(=O)NC4=O)C5=O)CC3)CC2)c(C)cc1Nc1ncc(Br)c(Nc2cccc3c2N(S(C)(=O)=O)CC3)n1 (centres unmarked) [Example 166] ; field requested: DC50
247

###

molecular target: EGFR (Homo sapiens, UniProt P00533, L858R/T790M); construct: endogenous in cells; host or cells: H1975; assay: Cell Degradation 1: EGFR degradation in H1975 cells, HTRF assay; assay type: cell-based; conditions: 16 h treatment, EGFR degradation by HTRF
ASSAY READOUT: DC50
Please append the unit to your numeric answer.

Example results:
# COMPOUND, DC50
measured = [
    ("CS(=O)(=O)N1CCc2cccc(Nc3nc(Nc4ccc(N5CCC(N6CCN(CCC7CCN(c8ccc(C9CCC(=O)NC9=O)cc8)CC7)CC6)CC5)c(F)c4)nc4[nH]ccc34)c21 (centres unmarked) [Example 8]", "9.1 nM"),
    ("CS(=O)(=O)N1CCc2cccc(Nc3nc(Nc4ccc(N5CCC(N6CCN(CCc7ccc(C8CCC(=O)NC8=O)c(F)c7)CC6)CC5)c5c4OCC5)ncc3Cl)c21 (centres unmarked) [Example 53]", "2.6 nM"),
    ("CS(=O)(=O)N1CCc2cccc(Nc3nc(Nc4ccc(N5CCC(N6CCN(CCc7ccc(NC8CCC(=O)NC8=O)cc7)CC6)CC5)c(F)c4)nc4[nH]ccc34)c21 (centres unmarked) [Example 66]", "7.1 nM"),
    ("COc1cc(N2CCC(N3CCN(C(=O)CCN4CCN(c5ccc6c(c5)C(=O)N(C5CCC(=O)NC5=O)C6=O)CC4)CC3)CC2)c(C)cc1Nc1ncc(Br)c(Nc2cccc3c2N(S(C)(=O)=O)CC3)n1 (centres unmarked) [Example 42]", "13.5 nM"),
]

Param readout= DC50; system= EGFR (Homo sapiens, UniProt P00533, L858R/T790M); entry= COc1cc(N2CCC(N3CCN(CC4CN(c5ccc6c(c5)C(=O)N(C5CCC(=O)NC5=O)C6=O)C4)CC3)CC2)ccc1Nc1ncc(Cl)c(Nc2cccc3c2N(S(C)(=O)=O)CC3)n1 (centres unmarked) [Example 86] ; returns value.
1.8 nM

###

DC50 overview
biological target: EGFR (Homo sapiens, UniProt P00533, DEL746-750); construct: endogenous in cells; host or cells: HCC827; assay: Cell Degradation 2: EGFR degradation in HCC827 cells, HTRF assay; format: cell-based; details: 16 h treatment, EGFR degradation by HTRF
Kindly answer with a numeric value in nM, unit omitted.

Example results:
# COMPOUND, SYSTEM NAME, ASSAY READOUT, NUMERIC READOUT
measured = [
    ("CS(=O)(=O)N1CCc2cccc(Nc3nc(Nc4ccc(N5CCC(N6CCN(CCC7CCN(c8ccc9c(c8)C(=O)N(C8CCC(=O)NC8=O)C9=O)CC7)CC6)CC5)c(F)c4)ncc3Cl)c21 (centres unmarked)", "EGFR (Homo sapiens, UniProt P00533, DEL746-750)", "DC50", 3.4),
    ("COc1cc(N2CCN(C3CCN(CCc4ccc(C5CCC(=O)NC5=O)cc4)CC3)CC2)ccc1Nc1ncc(Cl)c(Nc2cccc3c2N(S(C)(=O)=O)CC3)n1 (centres unmarked)", "EGFR (Homo sapiens, UniProt P00533, DEL746-750)", "DC50", 9.7),
    ("COc1cc(N2CCC(N3CCN(CCc4ccc(C5CCC(=O)NC5=O)cc4)CC3)CC2)ccc1Nc1nc(Nc2cccc3c2N(S(C)(=O)=O)CC3)c2cc[nH]c2n1 (centres unmarked)", "EGFR (Homo sapiens, UniProt P00533, DEL746-750)", "DC50", 113),
]

We next turn to a different compound, shown below.
Query (compound): COc1cc(N2CCC(N3CCN(CC4CN(c5ccc6c(c5)CN(C5CCC(=O)NC5=O)C6=O)C4)CC3)CC2)ccc1Nc1ncc(Cl)c(Nc2cccc3c2N(S(C)(=O)=O)CC3)n1 (centres unmarked) ; field requested: DC50
2.9
